- Target Under Test: T1, HsmtSSBwt (mature human mitochondrial SSB) (Homo sapiens, UniProt Q04837 17-148)
- T1 sequence: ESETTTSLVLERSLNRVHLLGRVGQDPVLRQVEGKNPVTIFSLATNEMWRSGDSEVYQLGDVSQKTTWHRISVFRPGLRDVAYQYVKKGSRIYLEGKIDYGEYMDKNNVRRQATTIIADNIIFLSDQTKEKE
- Assay Procedure: EMSA; 50 mM NaCl, 4 mM Mg2+; apparent Kd, protein as tetramer; 20 mM Tris-HCl pH 7.5, 1 mM DTT, 4 mM MgCl2, 50 mM NaCl, 36 fmol 48-mer in 20 µL, 20°C 10 min; 6% native PAGE
- Experimental Context: protein: recombinant; tags: none (untagged); chain copies: 4; label: 5'-32P; single strand
pKd: −log10 of the molar value.

Binder | pKd
GGACTATTTATTAAATATATTTAAGAACTAATTCCAGCTGAGCGCCGG (ssDNA) [48-mer ssDNA oligonucleotide] | ~8.30
